# ASSAY REMARKS: NCI Yeast Anticancer Drug Screen. Data for the sgs1 mgt1 strain (AID 161);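 also: 0% = growth of cultures given vehicle only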
# CONDITION NOTES: S. cerevisiae sgs1 mgt1 strain, at 50.0 µM, stronger effect = higher value
The panel holds about 79,000 compounds, 15% with a hit somewhere; the sample as a whole holds those more often.
REPORTED PROPERTY: growth inhibition (%)
Please give a number only; it is taken to be in %.

Return reported growth inhibition. Input molecule: O=C1C=CC(=O)C1 3.15

Write down growth inhibition measured for item NC(=O)c1ccccc1NC(=O)C(=O)C(c1cnc2ccc([N+](=O)[O-])cc2n1)[N+](=O)[O-] (stereo not given) 19.6

Indicate the recorded growth inhibition value for this molecule: CNc1nnnn1C1OC(CO)C(O)C1O (stereo not given) -9.6

Consider the molecule O=C1NC(N2CCOCC2)=N/C1=C\c1ccccc1 . State its measured growth inhibition. -9.8

Retrieve growth inhibition measured for O=C(O)CCSSCCC(=O)O and print it. 10.8

Output measured growth inhibition for this item: CCC(C)(O)c1cn(-c2cccc(S(=O)(=O)O)c2)nn1 (stereo not given) -8.05

Please list growth inhibition recorded for the molecule CC(C)NC(=O)c1ccc(CBr)cc1 -10.1

Using the record for C=CNc1cccc2ccccc12 , state its measured growth inhibition. 14.2

Assign growth inhibition to the following record: CCCC=NCCCC -35.6

Identify measured growth inhibition associated with N#Cc1cc2ccccc2c2ccccc12 5.85

Check the records and state growth inhibition for CC1OC(=O)c2cc3ccccc3cc2O1 (stereo not given) 5.95

Find the measured growth inhibition of Nn1c(-c2ccccc2)n[nH]c1=O and report it. 16.5

Item COC(=O)C(CCc1ccc([N+](=O)[O-])cc1)(CCc1ccc([N+](=O)[O-])cc1)C(C)=O : provide growth inhibition 4.55

Given COC(=O)C1C(O)C(C)C(O)C(C)(O)C=C(C)C2=C3C(=C(C)C(=O)c4c(O)c(c(C)c(OC(C)=O)c43)NC(=O)C(C)=C/C=C\C(C)(O)C(O)C(C)C1O)OCO2 (stereo not given) , respond with its growth inhibition. 0.85

Assign growth inhibition to the following record: CON1C(=O)c2ccccc2C1=O -7.85

Complete the entry with growth inhibition for CCOC(CNCc1ccc(OC)cc1)OCC 4

Note growth inhibition for the molecule shown: NC1=Nc2cc(C(F)(F)F)ccc2Sc2nc3ccccc3n21 20.1

Look up growth inhibition of COc1cc(OC)c2c(=O)cc(-c3ccc(OC)c(OC)c3OC)oc2c1 and report it. -30.1

Check the records and state growth inhibition for CC(C)NC(=O)c1ccccc1-[s+]1c2ccccc2c(=O)n1C(C)C (stereo not given) -11.7

# return recorded growth inhibition for entry CCCCCCCC/C=C\CCCCCCCCOC(=O)CC(O)C(=O)OCCCCCCCC/C=C\CCCCCCCC (stereo not given) -7.5

Tell me its growth inhibition given CN(C)c1c2c(oc(=O)c1Cl)-c1ccccc1OCC2 as the entry. -10.4

Answer with reported growth inhibition of CCCCCC(O)(CCCC)CCCCC 1.85

Determine from records and report growth inhibition for O=C(c1nc2ccc(Cl)cc2[nH]c1=O)C(O)c1ccccc1 (stereo not given) 39.4

Determine from records and report growth inhibition for O=C(O)CNC(=O)CNC(=O)c1ccc2ccccc2n1 11.1

Look up and report measured growth inhibition for this entry: CCN(CC)CCCC(C)Nc1cc(C)nc(Nc2nc3cc(Cl)c(Cl)cc3[nH]2)n1 (stereo not given) 97.4

Read off the recorded growth inhibition for CCCCC(=O)CCC(=O)O 4.95

Identify the reported growth inhibition for the following entry. CC1c2[nH]c3ccccc3c2CC1C(=O)O (stereo not given) 5.25

Please give the documented growth inhibition of COC(=O)C1CCC(C)(C(N)=O)C1(C)C (stereo not given) -10.9

Look up growth inhibition of O=C1NC(c2ccco2)N2C(=O)NC(c3ccco3)N12 (stereo not given) and report it. 24.5

Tell me growth inhibition reported for CC1=CC(O)(c2ccccc2)C(N2CCOCC2)N1O (stereo not given) -3.5

Annotate the molecule CCC1C2C=CC(CC2)N1S(=O)(=O)c1ccc(C)cc1 (stereo not given) with its measured growth inhibition. 10.8

Report growth inhibition, nothing else, for this molecule: CCOC(=O)c1ccc(NC(=O)Nc2cc(C(F)(F)F)ccc2Cl)cc1 92.9

Fill in growth inhibition for record CCC1C(C#N)=C(O)NC(O)=C1C#N 11.8

Indicate its recorded growth inhibition; the molecule in question is N=C(CN1CCCCC1)N1CCCCC1 -5.15

Answer with the recorded growth inhibition of CC(=O)Nc1cc2cc(NC=C(C#N)C#N)ccc2oc1=O only. 14.1

Look up and state reported growth inhibition for COc1cccc(OC)c1C -10.6

Let me know recorded growth inhibition for COC(=O)C(C)NC(=O)C(C)NC(=O)c1cc(OC)c(OC)c(OC)c1 (stereo not given) , thanks. 17.4

Specify growth inhibition for CC1=CC2=NC(=O)C(c3ccccc3)C(=O)N2C=C1 (stereo not given) and stop. -9.95

Supply growth inhibition value. Item: NC1C(O)OCC(O)C1O (stereo not given) 10.2

For C/C(=N\Nc1ccccc1Br)c1cccc(/C(C)=N/Nc2ccccc2Br)n1 , write its growth inhibition. -6.1

Give the reported value of growth inhibition for this record: COc1ccccc1C(=O)c1ccccc1 -3.4

Report growth inhibition for Cc1cccc(C(=O)OCCBr)c1 13.7

Note down growth inhibition recorded for Cc1cc(NC(=O)CCc2ccc(N3C(N)=NC(N)=NC3(C)C)cc2)ccc1S(=O)(=O)O 8.05

Give a short answer stating reported growth inhibition for COc1ccccc1N1C(=O)C2c3[nH]c4ccccc4c3C3CCC(C(C)(C)C)CC3C2C1=O (stereo not given) . -4.2

Consider the molecule CN1CCc2sccc2C(c2ccccc2)O1 (stereo not given) and give its recorded growth inhibition. -3.8

Report growth inhibition for Cc1cccc2c1c1ccc3c(c1n2C)C(=O)C=CC3=O 4.6

Kindly indicate its recorded growth inhibition. Item: O=C(Nc1ccccc1[N+](=O)[O-])C(=O)Nc1ccccc1[N+](=O)[O-] -2.95

Output measured growth inhibition for this item: CC(=O)N=C1N(/C=C2\C(=O)Oc3ccccc3C2=O)C(=O)/C(=C/c2ccc(OC(C)=O)cc2)N1C -14.9

Please supply the value of reported growth inhibition for the item CC(C)(C)NC(=O)Oc1cccnc1 -12.6

State its growth inhibition for this molecule: C[N+]1(C)CCC(c2ccccc2)(c2ccccc2)C(O)C1 (stereo not given) 0
